- test.protocol: Partition coefficient (logP)
- Type: physicochemical
- measurement.setup: octanol/water
recorded.endpoint: logP

{"compound": "O=C(CCc1ccccc1)c1ccccc1OCC(O)CNCc1ccccc1 (centres undefined)", "assay.value": 4.3}
{"compound": "COc1ccccc1N1CCN(CC(O)c2oc3ccccc3c2CCc2ccccc2)CC1 (centres undefined)", "assay.value": 5.32}
{"compound": "CCCN(C)CC(O)COc1ccccc1C(=O)CCc1ccccc1 (centres undefined)", "assay.value": 3.77}
{"compound": "COc1ccc(N2CCN(CC(O)COc3ccccc3C(=O)CCc3ccccc3)CC2)cc1 (centres undefined)", "assay.value": 4.65}
{"compound": "CC(C)NCCc1oc2ccccc2c1CCc1ccccc1", "assay.value": 4.54}
{"compound": "O=C(CCc1ccccc1)c1ccccc1OCC(O)CN1CCOCC1 (centres undefined)", "assay.value": 2.54}
{"compound": "CCCNCC(O)c1oc2ccccc2c1CC (centres undefined)", "assay.value": 3.1}
{"compound": "CC(C)N(CC(O)COc1ccccc1C(=O)CCc1ccccc1)C(C)C (centres undefined)", "assay.value": 4.25}
{"compound": "COc1ccccc1N1CCN(CC(=O)c2oc3ccccc3c2CCc2ccccc2)CC1", "assay.value": 5.05}
{"compound": "O=C(CCc1ccccc1)c1ccccc1OCC(O)CN1CCCC1 (centres undefined)", "assay.value": 3.26}
{"compound": "Cc1ccccc1N1CCN(CC(O)COc2ccccc2C(=O)CCc2ccccc2)CC1 (centres undefined)", "assay.value": 5.26}
{"compound": "O=C(CCc1ccccc1)c1ccccc1OCC(O)CN1CCN(c2ccc(F)cc2)CC1 (centres undefined)", "assay.value": 4.93}
{"compound": "CCCNCCc1oc2ccccc2c1CCc1ccccc1", "assay.value": 4.71}
{"compound": "CC(=O)c1ccccc1OCC(O)CN1CCN(c2ccc(F)cc2)CC1 (centres undefined)", "assay.value": 2.67}
{"compound": "CCC(=O)c1ccccc1OCC(O)CN1CCOCC1 (centres undefined)", "assay.value": 0.94}
{"compound": "CCCNCC(O)c1oc2ccccc2c1CCc1ccccc1 (centres undefined)", "assay.value": 4.07}
{"compound": "CN(C)CC(O)COc1ccccc1C(=O)CCc1ccccc1 (centres undefined)", "assay.value": 2.94}
{"compound": "O=C(CCc1ccccc1)c1ccccc1OCC(O)CN1CCCCC1 (centres undefined)", "assay.value": 3.67}
{"compound": "CCN(CC)CC(O)COc1ccccc1C(=O)CCc1ccccc1 (centres undefined)", "assay.value": 3.62}
